These data points were gathered from patent US8940913B2.

Test system: Setaria faberi (SETFA)
assayComment: Post-emergence herbicidal activity, glasshouse pot test
Format: in vivo
measurementParameters: 360 h, rate 125 g/ha, evaluated 15 days later, 100=total damage to plant, 0=no damage to plant

{"molSmiles": "Cc1cc(-c2ccccc2)cc(C)c1C1=C(OC(=O)C(C)(C)C)[C@H]2[C@@H](C1=O)[C@]1(C)CC[C@@]2(C)O1", "pest or weed control at 125 g/ha [%]": 90}
{"molSmiles": "CCc1ccc(-c2ccc(Cl)c(C(F)(F)F)c2)cc1C1=C(O)[C@H]2[C@@H](C1=O)[C@]1(C)CC[C@@]2(C)O1", "pest or weed control at 125 g/ha [%]": 100}
{"molSmiles": "CCc1ccc(-c2ccc(Cl)cc2)cc1C1=C(O)[C@H]2[C@@H](C1=O)[C@]1(C)CC[C@@]2(C)O1", "pest or weed control at 125 g/ha [%]": 90}
